Listed below: composite z-score values for each entry.
assay: small-molecule microarray binders of probe aNog, primary screen, biochemical, biotinylated probe, 635/667 nm fluorescence (AID 1115); conditions: higher = more signal;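 further: probe is biotinylated aNog protein used at 0.15 µg/mL for 1 h at 4 C; z-score combines 667 nm fluorescence of each spot with its signal to noise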
Reply with the value as a number alone.

C=C(C(=O)CC[C@@H](OC(=O)c1ccccc1-c1ccccc1C(=O)O)c1ccccc1OCCO)C(C)C = -0.409
COCCOC(=O)N1C(=O)[C@@]2(c3ccccc31)[C@H](c1ccc(OCCO)cc1)N1[C@H](c3ccccc3)[C@H](c3ccccc3)OC(=O)[C@H]1[C@@H]2C(=O)N1CCCCCCC1 = 3.73
O=C(O)[C@H]1C[C@H]2C(=O)N[C@@H](Cc3ccccc3)C(=O)N2[C@H]1c1cccc(OCCO)c1 = 0.185
COCCCNC(=O)[C@@H]1c2ccccc2C(=O)N(C2Cc3ccccc3C2)[C@H]1c1ccc(CO)cc1 = -0.532
COc1cc(CO)cc(I)c1O[C@H]1C=C(C(=O)NCCO)C[C@@H](NCC2CCCCC2)[C@@H]1O = -0.319
C=C(C(=O)CC[C@H](OC(=O)c1ccccc1-c1ccccc1C(=O)O)c1ccccc1OCCO)C(C)C = 0.0718

Lab note: measured composite z-score of `CC(C)C[C@@H]1NC(=O)[C@H]2C[C@@H](C(=O)NCCCCCN)[C@@H](c3cccc(OCCO)c3)N2C1=O` was -0.157

Source of measurements: PubChem BioAssay
